# ASSAYED TARGET: HLA-B*15:42
# ASSAY INFO: IEDB peptide-MHC binding, purified MHC/competitive/fluorescence; filed as Kd, often an IC50 or EC50 that approximates it; bounds were set here for any values at or beyond the usual limits of such assays
# PARTICULARS: source organism: Yersinia pestis Nepal516
pKd: −log10 of the molar value.
QUANTITY NAME: pKd

> print(dat)
   residue.string  quantity.name  endpoint.result
1       YRYCHQLAL            pKd           ≤ 5.30
2       MPFAWQFGF            pKd           ≤ 5.30
3       FYFNWNTPI            pKd           ≤ 5.30

* * *

pKd by entry:
# ASSAYED TARGET: HLA-A*30:01
# ASSAY INFO: IEDB peptide-MHC binding, purified MHC/competitive/radioactivity; filed as Kd, often an IC50 or EC50 that approximates it; bounds were set here for any values at or beyond the usual limits of such assays
# PARTICULARS: source organism: Dengue virus 4 Dominica/814669/1981
pKd: −log10 of the molar value.
QUANTITY NAME: pKd

> print(dat)
   residue.string  assayed.target  endpoint.result
1      VKVLRPTPRG     HLA-A*30:01             5.22
2      VMKRYSAPSE     HLA-A*30:01             5.20

* * *

# ASSAYED TARGET: HLA-B*15:01
# ASSAY INFO: IEDB peptide-MHC binding, purified MHC/direct/fluorescence; filed as Kd, often an IC50 or EC50 that approximates it; bounds were set here for any values at or beyond the usual limits of such assays
# PARTICULARS: source organism: Salmonella enterica subsp. enterica serovar Typhimurium
pKd: −log10 of the molar value.
QUANTITY NAME: pKd

> print(dat)
   residue.string  quantity.name  endpoint.result
1       QLCDEITIL            pKd             5.92

* * *

# ASSAYED TARGET: HLA-B*44:03
# ASSAY INFO: IEDB peptide-MHC binding, purified MHC/competitive/radioactivity; filed as Kd, often an IC50 or EC50 that approximates it; bounds were set here for any values at or beyond the usual limits of such assays
# PARTICULARS: source organism: Dengue virus 1 Singapore/S275/1990
QUANTITY NAME: Kd (nM)

> print(dat)
   residue.string  assayed.target  quantity.name  endpoint.result
1       MEVTARWLW     HLA-B*44:03             Kd             10.9

* * *

# ASSAYED TARGET: HLA-A*30:02
# ASSAY INFO: IEDB peptide-MHC binding, purified MHC/competitive/radioactivity; filed as Kd, often an IC50 or EC50 that approximates it; bounds were set here for any values at or beyond the usual limits of such assays
# PARTICULARS: source organism: Mammarenavirus choriomeningitidis
pKd: −log10 of the molar value.
QUANTITY NAME: pKd

> print(dat)
   residue.string  endpoint.result
1       VTERIFREY             6.06

* * *

# ASSAYED TARGET: HLA-B*57:01
# ASSAY INFO: IEDB peptide-MHC binding, purified MHC/direct/fluorescence; filed as Kd, often an IC50 or EC50 that approximates it; bounds were set here for any values at or beyond the usual limits of such assays
# PARTICULARS: source organism: Mycobacterium tuberculosis
pKd: −log10 of the molar value.
QUANTITY NAME: pKd

> print(dat)
   residue.string  assayed.target  endpoint.result
1       KPARGGSSI     HLA-B*57:01           ≤ 4.70
